Origin of measurements: paper PMC5540273

- Tested on: PIK3CD;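 note: KINOMEscan kinase panel screen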
- conditions: concentration: 1 μM, replicates: in singlicate; n = 1
Entries and their %Inh

| molecule | quantity unit | %Inh |
| --- | --- | --- |
| COc1cc2nccc(Nc3ccc(OCc4ccc(NC(C)=O)cc4)cc3)c2cc1OC.Cl | % | 0 |
| C[C@@H]1CC[C@H](C(=O)NC2CCCCC2)CN1c1cc(-c2ccc3c(N)n[nH]c3c2)nc(N)n1 | % | 0 |
| Cc1c(Cn2c(C)nn3c(=O)cc(N4CCO[C@H](C)C4)nc23)cccc1C(F)(F)F | % | 65 |
| CCCNC(=O)Nc1ccc(Oc2ncnc3ccn(C)c23)cc1 | % | 30 |
| OCCCNc1nccc(-c2c(-c3cccc(C(F)(F)F)c3)nn3cc(C(F)(F)F)ccc23)n1 | % | 0 |
| Cc1nnc(-c2ccc(C)c(-c3ccc(C(=O)O)cc3)c2)o1 | % | 6 |
| O=C1NC(=O)C(c2ccccc2)=C1Nc1cccc(O)c1 | % | 0 |
| CCCC(=O)Nc1n[nH]c2ncc(-c3cccc4ccccc34)cc12 | % | 0 |
| Cc1ccc(-c2ccc3c(ccc4sc5c(c43)NC[C@@H](C)N=C5N(C)C)n2)cn1 | % | 15 |
| Cc1nn2c(=O)cc(N3CCOCC3)nc2n1Cc1cccc(Cl)c1Cl | % | 99.6 |
